Source of measurements: patent US20240059769A1

target: T1, human TSLP (human, UniProt Q969D9 29-159); assay: SPR
T1 construct: also called hTSLP; rhTSLP
This section presents binders with their documented Kd values.
The reply should be a number in nM, with the unit left off.

Consider the reported Kd for these binders:
BDG38.082 (antibody, V domains shown, IgG1) VH: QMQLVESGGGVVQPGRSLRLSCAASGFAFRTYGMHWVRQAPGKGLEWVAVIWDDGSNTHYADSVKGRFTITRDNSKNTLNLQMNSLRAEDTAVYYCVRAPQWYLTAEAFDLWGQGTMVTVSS VL: SYVLTQPPSVSVAPGETATITCGGNMIGGYLVHWYQQKPGQAPVLVIYDDVDRPDRIPERFSGSNSGNTATLTISRVEAGDEADYYCQVWDHDTNQVVFGGGTKLTVL : 0.0616
BDG38.078 (antibody, V domains shown, IgG1) VH: QMQLVESGGGVVQPGRSLRLSCAASGFEFRTYGMHWVRQAPGKGLEWLGVIWYDGSNTHYADSVKGRFTITRDNSKNTLNLQMNSLRVEDTAVYYCVRAPQWYLTAEAFDLWGQGTMVTVSS VL: SYILTQPPSVSVAPGETATITCGGNLIGARLVHWYQQKPGQAPVLVIYDDSDRPSRIPERFSGSNIGNTATLTIERVEAGDEADYYCQVWDYYSDHMVFGGGTKLTVL : 0.000231
BDG38.080 (antibody, V domains shown, IgG1) VH: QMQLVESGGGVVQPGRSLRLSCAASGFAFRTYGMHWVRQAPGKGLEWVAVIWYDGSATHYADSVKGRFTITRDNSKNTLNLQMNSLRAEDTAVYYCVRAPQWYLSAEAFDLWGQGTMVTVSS VL: SYVLTQPPSVSVAPGETATITCGGNLIGAYLVHWYQQKPGQAPVLVIYDDSDRPDRIPERFSGSNSGNTATLTISRVEAGDEADYYCQVWDHNTNHMVFGGGTKLTVL : 0.00722

Switching to the query record.
**Q:** Using the record for BDG38.077 (antibody, V domains shown, IgG1) VH: QMQLVESGGGVVQPGRSLTLSCAASGFAFRTYGMHWVRQAPGKGLEWVGVIWYDGSATHYADSVKGRFTITRDNSKNTLNLQMNSLRAEDTAVYYCVRAPQWYLTAEAFDLWGQGTMVTVSS VL: SYVLTQPPSVSVAPGETATITCGGALIGSRLVHWYQQKPGQAPVLVIYDDSDRPSRIPERFSGSNIGNTATLTISDVEAGDEADYYCQVWDHSSNTYVFGGGTKLTVL , report its Kd.
**A:** 0.166
